Values from BindingDB's records for doi:10.1021/jm0205752

Target: Alpha-2A adrenergic receptor [16-465] (Rattus norvegicus, UniProt P22909)
Construct: 16-465
Sequence (P22909 whole entry): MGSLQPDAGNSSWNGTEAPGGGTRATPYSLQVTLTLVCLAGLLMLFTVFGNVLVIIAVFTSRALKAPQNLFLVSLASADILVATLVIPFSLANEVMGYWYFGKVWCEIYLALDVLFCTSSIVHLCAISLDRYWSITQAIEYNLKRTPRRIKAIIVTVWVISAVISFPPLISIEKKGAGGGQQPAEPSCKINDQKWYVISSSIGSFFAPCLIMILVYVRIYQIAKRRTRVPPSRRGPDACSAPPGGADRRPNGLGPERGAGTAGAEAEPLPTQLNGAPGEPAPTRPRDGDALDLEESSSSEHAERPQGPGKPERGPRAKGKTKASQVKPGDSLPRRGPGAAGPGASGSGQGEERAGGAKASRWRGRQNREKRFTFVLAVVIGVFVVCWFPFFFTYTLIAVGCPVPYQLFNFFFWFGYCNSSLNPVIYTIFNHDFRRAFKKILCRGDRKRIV
Assay: alpha-Adrenoceptor Radioligand Binding Assay
Conditions: pH 7.7; 25 °C
PROPERTY: Ki (µM)

>>> reported_value("NS(=O)(=O)c1ccc2c(c1)CNCC2")
100
